target: Cyclin-dependent kinase 2 (Homo sapiens, UniProt P24941); test: Inhibition of CDK2 (unknown origin)
resultType: IC50 (nM)
Provide the reading as a plain figure in nM.

Incoming: Report measured IC50; entry is "CN(C)CCn1cc(-c2ccn3c(-c4ccc(C(N)=O)c(OCc5cccc(F)c5)c4)cnc3c2)cn1"
Outgoing: 370

----------
tested on: Rattus norvegicus; experiment: AUC (0 to t) in Sprague-Dawley rat at 1 mg/kg, iv administered as bolus dose by LC-MS/MS method; assay type: ADME, organism-based; conditions: in vivo
resultType: AUCt

Incoming: Report measured AUCt; entry is "CN(C)CCn1cc(-c2ccn3c(-c4ccc(C(N)=O)c(OCc5cccc(F)c5)c4)cnc3c2)cn1"
Outgoing: 495 ng·h/mL

Incoming: Report measured AUCt; entry is "CN(C)CCn1cc(-c2ccn3c(-c4ccc(C(N)=O)c(OCc5cccc(C(F)(F)F)c5)c4)cnc3c2)cn1"
Outgoing: 262 ng·h/mL

Incoming: Report measured AUCt; entry is "CN(C)CCn1cc(-c2ccn3c(-c4ccc(C(N)=O)c(OCc5ccccc5)c4)cnc3c2)cn1"
Outgoing: 386 ng·h/mL
